- Tested on: MILI (PIWIL2) piRISC loaded with L1MC piRNA (26 nt);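 further: 1 nM active piRISC with 0.1 nM target library at 33 °C single turnover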
- ASSAY_METHOD_TEXT: pre-steady-state target cleavage rate (min^-1); guide: L1MC piRNA 5'p-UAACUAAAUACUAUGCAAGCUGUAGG; higher = faster piRNA-guided slicing of the target
- MEASUREMENT_CONDITIONS: auxiliary factor: none (no GTSF1)
Below is a list of entries, each paired with its recorded pre-steady-state target cleavage rate value.
Form: value (number only, do not type unit).

Study these solved cases before continuing.
// returns reported pre-steady-state target cleavage rate for input `UCCUGGUACAGGUUGCAUAGUAUUUAGUUA`
0.0148

Please do the same for `UCCUGGAUGUGCUUGGAUAGUUUUUAGUUA` as well.
0.00414

And then `UCCUGGUACAGCUUGCAUAGUAUAAAGUUA` , what is it?
0.00524

`UCCUGGGACAGCUUGCAUAGUAUUUAGUUA` , same question.
0.0138

`UCCUGCUAGAGCUUGCAUAGUAUUUUGUUA` , same question.
0.00521

Item: `UCCUGGAUGUCCUUGCAUAGUAUCUAGUUA`
0.00287

Likewise for `UCCUGGAUGGGCUUGCAUAGUAUUUAGUUA` ?
0.0171

Param item: `UCCUCCAACAGCUUGCAUAGUAUAUAGUUA`
0.0056

Others:
I'd like to know its pre-steady-state target cleavage rate. The sequence in question is `UCCUGGAACAGCAAGCAUAGUAUUUAGUUA`
0.00588

How about this sequence: `UCCUCCUACAGCUUGCAUAGAUUUUAGUUA`
0.00358

* * *

- Tested on: MILI (PIWIL2) piRISC loaded with piRNA #1 (26 nt);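 further: 1 nM active piRISC with 0.1 nM target library at 33 °C single turnover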
- ASSAY_METHOD_TEXT: pre-steady-state target cleavage rate (min^-1); guide: piRNA #1 5'p-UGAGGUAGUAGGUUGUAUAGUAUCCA; higher = faster piRNA-guided slicing of the target
- MEASUREMENT_CONDITIONS: auxiliary factor: 500 nM mouse GTSF1
READOUT_LABEL: pre-steady-state target cleavage rate
Respond using a number only.

Here are 2 sequences together with their reported answers.
Consider the sequence `GGAGACCUAACUAUACAUCCUUCUACCUCA` and give its measured pre-steady-state target cleavage rate.
0.0117

Then this sequence: `GGAGACCUUACUAUACAACCUUCAACCUCA`
0.00437

New cases:
pre-steady-state target cleavage rate for `GGAGUCGAUACUAUACAACGUACUACCUCA` ?
0.0256

And `GGAGACCUAUGAUUACAACCUACAUCCUCA` ?
0.00278

How about `GGAGACCAUACUAUACAACCUACGACCUCA` ?
0.137

What would you report for `GGAGACCAUAGUAUACAACCUACUUCCUCA` ?
0.073

Now try `GGAGACCUUACAAUACAACCUACUAGCUCA` .
0.103

And the next one, `GGAGACCUAAGUAUACUACCUACUACCUCA` ?
0.0377

Likewise for `GGAGAGGAUACUAUACCACCUACUACCUCA` ?
0.212

* * *

- Test system: EfPiwi piRISC loaded with piRNA #1 (26 nt)
- ASSAY_METHOD_TEXT: pre-steady-state target cleavage rate (min^-1); auxiliary factor: 500 nM Ephydatia muelleri Gtsf1; guide: piRNA #1 5'p-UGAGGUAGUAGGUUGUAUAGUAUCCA; higher = faster piRNA-guided slicing of the target
READOUT_LABEL: pre-steady-state target cleavage rate
Lab note: write the figure by itself, no unit.

Worked cases, answers included:
Field request: pre-steady-state target cleavage rate | item: `GGAGACCAUACUAUACAACCUACAACCUGA`
0.00439

What about this sequence? `GGAGUGGAUACUAUACAACGUAGUACCUCA`
0.00292

Proceed to `GGAGACGAUACUAUACAACGUACUACCUCA`
0.00525

Note, next up: `GGAGACGAUACUAUACAACCUACUAGGUCA`
0.0052

Entry GGAGACGAUACUAUACAACCUACUACCUCA [g2:g24:cont:t1A] please
0.0773

Moving on to the next sequence: `GGAGACCUUACUAUCACAACCUACUACCUCA`
0.00983

Here is another sequence to look at.
So what's the measured pre-steady-state target cleavage rate for this one? `GGAGUGGAUACUAUUACAACCUACUACCUCA`
0.131

* * *

Each entry below lists one item and its recorded pre-steady-state target cleavage rate value.
- System: EfPiwi piRISC loaded with L1MC piRNA (26 nt)
- ASSAY_METHOD_TEXT: pre-steady-state target cleavage rate (min^-1); auxiliary factor: 500 nM Ephydatia muelleri Gtsf1; guide: L1MC piRNA 5'p-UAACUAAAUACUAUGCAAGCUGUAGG; higher = faster piRNA-guided slicing of the target
Keep it simple and answer with nothing but the number.

May I ask what pre-steady-state target cleavage rate has been recorded for `UCCUGCUUCAGCUUCCAUAGUAUUUAGUUA` ?
0.00322

Next sequence up: `UCCUGCUACACCUUGCUUAGUAUUUAGUUA`
0.00903

Field entry: `UCCUGCUACAGCUUCCAUAGUAUUUAGUUA`
0.00342

Try this sequence too: `UCCUGGAACACCUUGCAUAGUAUUUAGAUA`
0.0026

Can you check `UCCUCCUACAGCUUGGAUAGUAUUUUCAAA` next?
0.00297

Others:
Record request: pre-steady-state target cleavage rate value, item `UCCUCCUACAGCUUGCAUAGUAUUUAGUCA`
0.00693

// next record `UCCUGCUACAGCUUGCAUACUAUUUACUUA`
0.00325

Same question, `UCCUGCUAAAGCUUGCAUAGUAUUUAGUUA` this time
0.00411

And then `UCCUCCUACAGGUUGCAAAGUAUUUAGUUA` , what is it?
0.0547

What do you get for `UCCUGCUACAGCUUGCAUAGUAGUUAGUUA` ?
0.00461

`UCCUGGUACAGGUUGCAUACUAUUUAGUUA` ?
0.00258

// same read-out, input: `UCCUGGAACAGCUUGGAUAGUAUUUAGAAA`
0.00373

Query `UCCUGGAACAGCUAGCAUAGUAUUUAGUAA` next
0.00289

Request: `UCCUGGAUGAGACUUGCAUAGUAUUUAGUUA`
0.00434

* * *

- Test system: MILI (PIWIL2) piRISC loaded with L1MC piRNA (26 nt);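 further: 1 nM active piRISC with 0.1 nM target library at 33 °C single turnover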
- ASSAY_METHOD_TEXT: pre-steady-state target cleavage rate (min^-1); guide: L1MC piRNA 5'p-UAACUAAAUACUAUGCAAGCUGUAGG; MIWI and MILI are mouse PIWI proteins and EfPiwi is from a freshwater sponge; tags in brackets are library labels; higher = faster piRNA-guided slicing of the target
- MEASUREMENT_CONDITIONS: auxiliary factor: 500 nM mouse GTSF1
Parameter pre-steady-state target cleavage rate: see the listing below.

Consider the reported pre-steady-state target cleavage rate for these sequences:
Find the recorded pre-steady-state target cleavage rate belonging to `UCCUGCUACAGCUUGCAUAGUAUUUGGUUA` and report it.
0.27

Next entry: UCCUGGAUGUCGUUGCAUAGUAUUUAGUUA [g2:g18:cont:t1A]
0.164

Next:
# input sequence: `UCCUGGAUGAGCUUGCAAAGUAUUUAGUUA` ; wanted: its pre-steady-state target cleavage rate
0.0794

// next record `UCCUGGAACAGCUUGCAUAGUGAUUUAGUUA`
0.0178

What about this sequence? `UCCUGGUACUGCUUGCAUAGUAUAUAGUUA`
0.168

Please do the same for `UCCUGGAUGAGCUUGCUUAGAAUUUAGUUA` as well.
0.0121

Then what about the sequence `UCCUGCAUCAGCUUGCAUAGUAUUUAGUAA` ?
0.223

Another sequence: `UCCUGCUACAGCUUGCACUAGUAUUUAGUUA`
0.0609

Then what about the sequence `UCCUGCUACAGCUAGCAUAGUAUAUAGUUA` ?
0.27

Param item: `UCCUGCUACAGCAUGCAUAGAAUUUAGUUA`
0.0922

// query: `UCCUGGAUCAGUCUUGCAUAGUAUUUAGUUA`
0.212

What do you have for `UCCUGGAUGAGCAAGCAUAGUAUUUAGUUA` ?
0.12

Lookup `UCCUCCUACAGCUUGCAUAGUAUAUACUUA`
0.0976

Same question, `UCCUGGAUGUGACUUGCAUAGUAUUUAGUUA` this time
0.114

Note, next up: `UCCUGCAACAGCUUCCAUAGUAUUUAGUUA`
0.112

Try this sequence too: `UCCUGCUACAGCUUGCAUAGUAUUGAGUUA`
0.114

Same again, this time with `UCCUGGAUGUCGAAGCAUAGUAUAAAGUUA`
0.0127

Cool, now `UCCUGGAUGAGCUUCCUUAGUAUUUAGUUA`
0.132

Moving on to the next sequence: `UCCUGGAUGAGCAACCAUAGUAUUUAGUAA`
0.0492

Same question for `UCCUGGAUGUCGUUGCAUAGUAUUAUGUUA` please.
0.156

Now the same for `UCCUGGAUCAGCUUGCUAAGUAUUUUCAAA`
0.00483

Similarly, `UCCUGGAUGUCGAACGUUAGUAUUUAGUUA` ?
< 0.0001

Lookup `UCCUGGAUCAGCUUGCAUAGUAAAUAGUUA`
0.171
